# TESTED_ON: ETS1 (UniProt P14921)
# Sequence: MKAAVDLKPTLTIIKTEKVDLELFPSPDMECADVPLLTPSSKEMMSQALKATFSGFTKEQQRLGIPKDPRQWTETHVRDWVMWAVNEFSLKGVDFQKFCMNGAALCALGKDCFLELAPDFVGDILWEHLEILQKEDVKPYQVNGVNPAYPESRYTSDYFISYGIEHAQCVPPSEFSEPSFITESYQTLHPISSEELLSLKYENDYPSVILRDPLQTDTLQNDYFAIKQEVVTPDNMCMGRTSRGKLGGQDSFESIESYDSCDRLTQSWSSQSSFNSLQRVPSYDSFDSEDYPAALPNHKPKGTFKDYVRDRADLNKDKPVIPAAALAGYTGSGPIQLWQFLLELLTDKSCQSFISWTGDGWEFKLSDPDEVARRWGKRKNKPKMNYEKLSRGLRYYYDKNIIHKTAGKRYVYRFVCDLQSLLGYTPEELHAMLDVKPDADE
# EXPERIMENT: ETS1 binding intensity (PBM fluorescence), ETS1 alone (arbitrary fluorescence units); higher = stronger binding
# CONDITION_LABEL: ETS1 concentration 1 nM; RUNX1 concentration 0 nM
PROPERTY_NAME: ETS1 binding intensity
Note: the reply should be a number with no unit written.

Given "TTGCTCCCGGAAGCCCCGCCCGACCGCGGCTCCTGA" , state its recorded ETS1 binding intensity. 999

One more sequence: "AGTCTCGTTTCCTGTGCGCTGTGGCCACCTGGCAGC" 1110

One more sequence: "CTGCCTGGCACAGGATGTGGTCATTTGTGCTGAGGA" 5880

One more sequence: "CCGGTCCTGACCGGAAGCGGTAACCGTCACTCCTTC" 21100

One more sequence: "TGCCTCCTCGTCACAGGATGTGGTCGCTGCACCCTG" 5200

One more sequence: "ATTTAGGAGGAAGTTTCCAGTACCACAACCTCACAG" 430

One more sequence: "AATATACGGTGAGGATGTGGGCAAAAAACAAAGAGG" 1060

One more sequence: "CCTTTACGTTTTCCTGTTGCGGGTTCTATCGCTCTG" 506

One more sequence: "ATTCTGCATCCTGTGCTCTTTCCATGAGACCACAAA" 448

One more sequence: "CTGACACTTCCGGGAGCCTTGTAGCCACAGGAATCA" 2490

One more sequence: "CTTCTGGCGGAAGCGGCACAAGCCGCAGTACAGCGC" 1070

One more sequence: "AACATTACGGAAGTTTCTCTACCCATGCGGTGTCTC" 521

---

# TESTED_ON: ETS1 (UniProt P14921)
# Sequence: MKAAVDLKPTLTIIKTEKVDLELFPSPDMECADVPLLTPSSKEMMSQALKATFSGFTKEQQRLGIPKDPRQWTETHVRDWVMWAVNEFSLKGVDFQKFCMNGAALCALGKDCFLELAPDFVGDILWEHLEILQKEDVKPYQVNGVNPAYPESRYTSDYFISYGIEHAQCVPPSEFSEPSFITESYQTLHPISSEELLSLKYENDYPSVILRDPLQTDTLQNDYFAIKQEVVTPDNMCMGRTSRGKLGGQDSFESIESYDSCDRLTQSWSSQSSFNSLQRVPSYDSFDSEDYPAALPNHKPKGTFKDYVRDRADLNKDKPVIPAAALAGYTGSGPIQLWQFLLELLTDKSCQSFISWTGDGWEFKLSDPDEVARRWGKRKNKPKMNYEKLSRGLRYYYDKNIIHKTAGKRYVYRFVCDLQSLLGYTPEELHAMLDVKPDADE
# EXPERIMENT: ETS1 binding intensity (PBM fluorescence), ETS1 alone (arbitrary fluorescence units); higher = stronger binding
# CONDITION_LABEL: ETS1 concentration 1 nM; RUNX1 concentration 0 nM
Classify by ETS1 binding intensity. Ranges: group A: < 600; group B: ≥ 600 and < 1000; group C: ≥ 1000

Class for "AACCTCCGACTTCCGGCCGCGCAGCGGTGGGCTGAG" ? group C

One more sequence: "ACCCAGGAGGCGGAAGTTGTGGTGAGCCGAGATCGC" group C

One more sequence: "GGGGCTGTGCTTCCGGCTGTTTGTGCGGTTTTGTGC" group C

One more sequence: "GGCAGGCAGCAGAGGAAACCACCCCCACCCACTCCC" group C

One more sequence: "CCGCTTCCGGCCTTCGCCCGGCTTACCCGCGTCGCA" group C

One more sequence: "AGGAGTGAGGAAGTGAGGCTGGCCTTGTGGGTGTGG" group B

One more sequence: "GAAAAAAATGAGCTTCCTTTAACCACAACTGTATTA" group A

One more sequence: "GGGTGCTTCCTATAAACAATGACTCATTACCGCACT" group A

One more sequence: "GCGCTACAGGAACTTCCTGCGCGGTTGCTGTCGTTG" group C

One more sequence: "CAAAGTGATGGGGGAAATGGTTGTGGTTTTGGGTGG" group A

One more sequence: "GACAGCAACTCCACTTCCTGTGGGCGAGGGCCCTGT" group C

One more sequence: "TGTGTATGAGAACGGATATAGGTGGTTTTATAAGGA" group C

One more sequence: "GAAATGAGAGAACGGAAACCACAAGTCAAGGGGCTT" group C

One more sequence: "GGCACCGGAAGTAGAGCTGCCCCTAGTTGCGGCAGT" group C

One more sequence: "ACCACGAGCCCAGGATGCGGTTTATGCGCTGTCGGG" group B

One more sequence: "CCAACAGTACCCTTCCTCCCTTAACCACAAGACTGA" group A

One more sequence: "CGCCCACCACTTCCTGCTGGCGGTCGGCAAGCGTTG" group C

One more sequence: "GTATGGGAAGTGATCTGGCTGCAAACCGCAAGAGAG" group A

One more sequence: "GCGGCGAACCGGACGCCCCAACCACCCGCCCCCCAC" group C

One more sequence: "GCTGTAGGAAATGTTATTCGCCGCGGTCAGGACAGG" group A

One more sequence: "CCACTGCTTCCGCCTTCTCTGCTGGCTGCGGGGAGC" group A

One more sequence: "CTTCCATCCAGGAAGCTTGTGGTGCAACAGCAGTGT" group B

One more sequence: "CCCCTCCCTGCTTCCTGTGTGGTGAGGGGTGATCAG" group C

One more sequence: "TAAGTGAATTTCCTGCCCGCCTCCGCCCACAGCGTA" group B

One more sequence: "ATGACTTAGCAACATCCTGACAACCACTACATTGTC" group A

One more sequence: "TGCAGTCTCAACTTCCTGCGGTCAAGTGATCCTTCA" group B

One more sequence: "CTCTTCCAGGAAGCCTTCCCTGACCACTGCTTGCTC" group A

One more sequence: "GGCGCCTCTTTCCGCCCCCGCCCACAATCGAGCGCA" group A

One more sequence: "ACAAGGACTTCCGCCTCCCTGCGGTCCCTCCCCTAC" group B

One more sequence: "CAACCTGCTATAAGGAAGTTAAACCGCAGCTCACCG" group B

One more sequence: "GTGCTGAGCAGCTTCCCGTCTGCGGTGAAGACAGCC" group A

One more sequence: "CTCCGGCGGAAGTTGTCTCTTCGCCGCCGCCGCAGC" group C

One more sequence: "CTGTCATCTTCCTGACAGCACGCCCACAAAGGACCA" group A

One more sequence: "CTTGTTCTATTTCCTGTTTGTGGTGAGTGACTGTCT" group C

One more sequence: "CCCGCCACTTCCCTGCCTCTGCGGGAGCCCCCCAGC" group A

One more sequence: "GCTTCTTCAGCCACATCCTGACCACAGCCCAGATTC" group A

---

# TESTED_ON: RUNX1 (UniProt Q01196)
# Sequence (Q01196 whole entry): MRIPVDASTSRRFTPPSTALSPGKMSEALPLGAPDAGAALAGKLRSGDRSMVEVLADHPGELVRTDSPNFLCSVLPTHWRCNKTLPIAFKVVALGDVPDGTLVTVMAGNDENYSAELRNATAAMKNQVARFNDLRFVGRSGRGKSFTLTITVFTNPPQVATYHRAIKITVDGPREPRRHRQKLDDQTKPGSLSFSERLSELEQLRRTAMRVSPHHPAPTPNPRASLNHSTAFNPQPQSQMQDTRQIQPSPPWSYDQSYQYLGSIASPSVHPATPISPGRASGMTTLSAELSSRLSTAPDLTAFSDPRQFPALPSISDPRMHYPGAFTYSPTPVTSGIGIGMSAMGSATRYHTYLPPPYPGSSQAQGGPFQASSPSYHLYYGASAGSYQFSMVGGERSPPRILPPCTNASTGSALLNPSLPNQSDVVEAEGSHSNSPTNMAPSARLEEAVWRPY
# EXPERIMENT: RUNX1 binding intensity (PBM fluorescence), RUNX1 alone (arbitrary fluorescence units); higher = stronger binding
# CONDITION_LABEL: RUNX1 concentration 2 nM; ETS1 concentration 0 nM
# label = condition met if RUNX1 binding intensity >= 800 else condition not met

Does the reported RUNX1 binding intensity for "TATTCAGGCTTCCGGGTGATGTTTGTGGCCACCCGG" fall at or above the 800 mark? condition not met

One more sequence: "AACTGTCTCTACCCAGGAAGTGGTTTTATTTAAAAG" condition met

One more sequence: "GCCATTAAAGCAGCTTCCTGTGGGCGCGGCGCAGGA" condition not met

One more sequence: "TCTCTTCCGTTCTCTGGTAGCTTTGTGGTAGCTTTG" condition met

One more sequence: "CGCCGGCTCCCGGATGTTGTGGGGATCAGCGCCCGC" condition not met

One more sequence: "TGCAAAAAAACAGGAAACACCCAGCCGCAAATTATA" condition met
